Listed molecules paired with reported pIC50
biological target: KRAS G12D (Homo sapiens, UniProt P01116+P62937, G12D); assay: Ras-Raf disruption/FRET/MOA assay, KRAS G12D; format: biochemical; settings: disruption of BRAF RBD binding, with Cyclophilin A; read-out: KRAS G12D FRET IC50
Sequence (P01116 1-169 isoform P01116-2 G12D limits assumed): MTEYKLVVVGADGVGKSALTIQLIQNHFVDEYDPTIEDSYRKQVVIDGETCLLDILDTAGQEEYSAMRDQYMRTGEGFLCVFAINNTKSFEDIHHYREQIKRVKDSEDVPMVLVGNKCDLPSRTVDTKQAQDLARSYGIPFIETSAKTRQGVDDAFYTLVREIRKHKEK
Sequence (P62937 whole entry): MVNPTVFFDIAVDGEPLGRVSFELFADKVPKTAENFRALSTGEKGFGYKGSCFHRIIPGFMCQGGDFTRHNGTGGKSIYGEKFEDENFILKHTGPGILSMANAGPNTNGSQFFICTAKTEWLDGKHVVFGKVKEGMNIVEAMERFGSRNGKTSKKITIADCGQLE
pIC50: −log10 of the molar value.
quantity name: pIC50

[[record]]
molecule = "CCn1c(-c2cnccc2COC)c2c3cc(ccc31)-c1cccc(c1)C[C@H](NC(=O)[C@H](C(C)C)N(C)C(=O)[C@H]1CC[C@H](N=C=Nc3ccc(OC)cc3)C1)C(=O)N1CCC[C@H](N1)C(=O)OCC(C)(C)C2 [71 A and B]"
recorded_value = "< 5.00"

[[record]]
molecule = "CCn1c(-c2cccnc2[C@H](C)OC)c2c3cc(ccc31)-c1csc(n1)C[C@H](NC(=O)[C@H](C1CCCC1)N1CC[C@]3(CCN(C(=O)[C@@H]4N[C@@H]4C4CC4)C3)C1=O)C(=O)N1CCC[C@H](N1)C(=O)OCC(C)(C)C2 [Compound 234]"
recorded_value = "5.00 to 6.00"

[[record]]
molecule = "CCn1c(-c2cnccc2COC)c2c3cc(ccc31)-c1cc(O)cc(c1)C[C@H](NC(=O)[C@H](C(C)C)N(C)C(=O)CN(C)C(=O)[C@@H]1[C@H](C(=O)OC)N1[S@@+]([O-])C(C)(C)C)C(=O)N1CCC[C@H](N1)C(=O)OCC(C)(C)C2 (some centres unmarked) [Compound 50]"
recorded_value = "6.00 to 7.00"

[[record]]
molecule = "CCn1c(-c2cnccc2COC)c2c3cc(ccc31)-c1cc(O)cc(c1)C[C@H](NC(=O)[C@H](C(C)C)N(C)C(=O)CN(C)C(=O)[C@H]1CN1S(C)(=O)=O)C(=O)N1CCC[C@H](N1)C(=O)OCC(C)(C)C2 (some centres unmarked) [Example 36]"
recorded_value = "6.00 to 7.00"

[[record]]
molecule = "CCn1c(-c2cnccc2COC)c2c3cc(ccc31)-c1cc(O)cc(c1)C[C@H](NC(=O)[C@H](C(C)C)N(C)C(=O)CN(C)C(=O)[C@@H]1CN1S(C)(=O)=O)C(=O)N1CCC[C@H](N1)C(=O)OCC(C)(C)C2 (some centres unmarked) [Compound 37]"
recorded_value = "6.00 to 7.00"

[[record]]
molecule = "CCn1c(-c2cccnc2[C@H](C)OC)c2c3cc(ccc31)-c1csc(n1)C[C@H](NC(=O)[C@H](C(C)C)N(C)C(=O)N1CCC[C@@H](N(C)C(=O)[C@H]3CN3)C1)C(=O)N1CCC[C@H](N1)C(=O)OCC(C)(C)C2 (atropisomer, axis not shown) [Compound 289]"
recorded_value = "6.00 to 7.00"

[[record]]
molecule = "CCn1c(-c2cccnc2[C@H](C)OC)c2c3cc(ccc31)-c1cc(O)cc(c1)C[C@H](NC(=O)[C@H](C1CCCC1)N(C)C(=O)[C@H]1CCN(C(=O)[C@H]3CN3)C1)C(=O)N1CCC[C@H](N1)C(=O)OCC(C)(C)C2 [Compound 58]"
recorded_value = "6.00 to 7.00"

[[record]]
molecule = "CCn1c(-c2cnccc2COC)c2c3cc(ccc31)-c1cc(O)cc(c1)C[C@H](NC(=O)[C@H](C(C)C)N(C)C(=O)CN(C)C(=O)[C@@H]1CN1C(C)=O)C(=O)N1CCC[C@H](N1)C(=O)OCC(C)(C)C2 [Compound 35]"
recorded_value = "6.00 to 7.00"

[[record]]
molecule = "CCn1c(-c2cccnc2[C@H](C)OC)c2c3cc(ccc31)-c1cc(O)cc(c1)C[C@H](NC(=O)[C@H](C(C)C)N1CC[C@]3(CCCN(C(=O)[C@H]4CN4)C3)C1=O)C(=O)N1CCC[C@H](N1)C(=O)OCC(C)(C)C2 [Compound 200]"
recorded_value = "6.00 to 7.00"

[[record]]
molecule = "CCn1c(-c2cccnc2[C@H](C)OC)c2c3cc(ccc31)-c1csc(n1)C[C@H](NC(=O)[C@H](C(C)C)N(C)C(=O)N1CCC[C@@H](N(C)C(=O)[C@@H]3CN3)C1)C(=O)N1CCC[C@H](N1)C(=O)OCC(C)(C)C2 (atropisomer, axis not shown) [Compound 291]"
recorded_value = "6.00 to 7.00"

[[record]]
molecule = "CCn1c(-c2cccnc2[C@H](C)OC)c2c3cc(ccc31)-c1cc(O)cc(c1)C[C@H](NC(=O)[C@H](C(C)C)N1CCCC3(CN(C(=O)[C@H]4CN4)C3)C1=O)C(=O)N1CCC[C@H](N1)C(=O)OCC(C)(C)C2 [Compound 307]"
recorded_value = "6.00 to 7.00"

